Measured MIC, listed per entry for reference.
- Tested on: Klebsiella pneumoniae
- Experiment Summary: Antimicrobial activity against blaKPC-positive Klebsiella pneumoniae S12 by broth microdilution method
- Format: functional
Supply the numeric figure in µg/mL, leaving out any unit text.

Known results for compounds:
compound="C[C@@H](O)[C@H]1C(=O)N2C(C(=O)O)=C(SCCNC=N)C[C@H]12 [IMIPENEM ANHYDROUS]" endpoint_name=MIC unit_symbol=µg/mL observed_value=32
compound=NCC[C@H](O)C(=O)N[C@@H]1C[C@H](N)[C@@H](O[C@H]2O[C@H](CN)[C@@H](O)[C@H](O)[C@H]2O)[C@H](O)[C@H]1O[C@H]1O[C@H](CO)[C@@H](O)[C@H](N)[C@H]1O endpoint_name=MIC unit_symbol=µg/mL observed_value=16

## Task Quick check: MIC of `C[C@@H](O)[C@H]1C(=O)N2C(C(=O)O)=C(S[C@@H]3CN[C@H](C(=O)N(C)C)C3)[C@H](C)[C@H]12` ?
## Result 32

## Task Look at this compound and give its reported MIC. `CN(C)c1cc(NC(=O)CNC(C)(C)C)c(O)c2c1C[C@H]1C[C@H]3[C@H](N(C)C)C(O)=C(C(N)=O)C(=O)[C@@]3(O)C(O)=C1C2=O`
## Result 0.25

Source of measurements: ChEMBL document CHEMBL1649191
